The values you see were collected from ChEMBL document CHEMBL1140826.

- TARGET_SYSTEM: Transient receptor potential cation channel subfamily V member 1 (Homo sapiens)
- Sequence (Q8NER1 whole entry): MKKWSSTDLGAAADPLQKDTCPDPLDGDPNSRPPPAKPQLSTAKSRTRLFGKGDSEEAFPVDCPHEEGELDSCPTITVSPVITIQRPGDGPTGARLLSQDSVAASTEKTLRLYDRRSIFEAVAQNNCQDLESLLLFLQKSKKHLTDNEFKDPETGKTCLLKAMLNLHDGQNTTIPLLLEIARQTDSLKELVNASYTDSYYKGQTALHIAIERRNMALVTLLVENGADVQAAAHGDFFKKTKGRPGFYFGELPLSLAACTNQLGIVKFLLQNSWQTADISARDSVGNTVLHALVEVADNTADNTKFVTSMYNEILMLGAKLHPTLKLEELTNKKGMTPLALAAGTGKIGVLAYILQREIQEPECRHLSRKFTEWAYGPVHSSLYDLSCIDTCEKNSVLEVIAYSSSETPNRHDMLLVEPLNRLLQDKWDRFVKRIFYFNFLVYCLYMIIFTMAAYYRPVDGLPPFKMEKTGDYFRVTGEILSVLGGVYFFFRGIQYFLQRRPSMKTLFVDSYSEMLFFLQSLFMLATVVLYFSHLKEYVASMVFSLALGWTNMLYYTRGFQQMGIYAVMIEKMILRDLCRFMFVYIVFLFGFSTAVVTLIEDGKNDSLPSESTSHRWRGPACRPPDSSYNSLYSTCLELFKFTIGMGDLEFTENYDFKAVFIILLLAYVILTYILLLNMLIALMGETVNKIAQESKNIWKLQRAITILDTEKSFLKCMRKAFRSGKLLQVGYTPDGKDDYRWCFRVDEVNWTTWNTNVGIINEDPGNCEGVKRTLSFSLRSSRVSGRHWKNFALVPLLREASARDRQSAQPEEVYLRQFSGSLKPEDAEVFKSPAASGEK
- PROTOCOL: Antagonist activity at human TRPV1 assessed as inhibition of capsaicin-induced calcium influx in HEK293 cells
- Format: functional, cell-based
TEST_READOUT: IC50

Worked set:
CC(C)(C)c1ccc(/C=C(\C#N)c2ccc(C(F)(F)F)cc2)cc1 :: > 10 µM
CC(C)(C)c1ccc(-n2nnc(-c3ccc(C(F)(F)F)cc3)n2)cc1 :: > 10 µM

Now let's try a different one.
Input line: Write down the reported IC50 of `O=C(Nc1ccc(C(F)(F)F)cc1)c1ccc(I)cc1` , test system: Transient receptor potential cation channel subfamily V member 1 (Homo sapiens).
Output line: > 10 µM

###

- TARGET_SYSTEM: Transient receptor potential cation channel subfamily V member 1 (Homo sapiens)
- PROTOCOL: Antagonist activity at human TRPV1 assessed as inhibition of capsaicin-induced calcium influx in HEK293 cells
- Type: functional, cell-based
pIC50: −log10 of the molar value.
TEST_READOUT: pIC50

CC(C)(C)c1ccc(-c2nc3cc(OC(F)(F)F)ccc3[nH]2)cc1 :: 5.85
COc1ccc2cccc(CCNC(=O)c3ccc(OC(F)(F)F)cc3)c2c1 :: 5.85

(A) CC(Cc1cccc2ccc(O)cc12)NC(=O)c1ccc(OC(F)(F)F)cc1 (centres undefined)
(B) O=C(NCCc1ccccc1Cl)c1ccc(OC(F)(F)F)cc1
(C) O=C(NCCc1c[nH]c2ccc(F)cc12)c1ccc(OC(F)(F)F)cc1
(D) COc1ccc2[nH]cc(C(C)CNC(=O)c3ccc(OC(F)(F)F)cc3)c2c1 (centres undefined)
Input line: List by increasing pIC50. Show the ranking through the labels, in the order asked for.
Output line: C, B, D, A
(C: 5.58, B: 6.11, D: 6.40, A: 7.09)

(1) COc1ccc2[nH]cc(CCNC(=O)c3ccc(C4CCCCC4)cc3)c2c1
(2) O=C(NCCC1CCCc2ccccc21)c1ccc(OC(F)(F)F)cc1 (centres undefined)
Input line: Hey, between 1 and 2 which has a smaller measured pIC50? Identify your selection by its label.
Output line: 2

(A) O=C(NCCc1c[nH]c2ccccc12)c1ccc(OC(F)(F)F)cc1
(B) FC(F)C(F)(F)Oc1ccc(-c2nc3cc(Br)ccc3[nH]2)cc1
Input line: Hey, between A and B which has a smaller measured pIC50? Identify your selection by its label.
Output line: A

(a) O=C(NCCc1cccc2ccncc12)c1ccc(OC(F)(F)F)cc1
(b) O=C(NCCc1ccc(Cl)cc1Cl)c1ccc(OC(F)(F)F)cc1
(c) O=C(Nc1ccc(C(F)(F)F)cc1)c1ccc(OC(F)(F)F)cc1
(d) O=C(NCCc1ccnc2ccc(O)cc12)c1ccc(OC(F)(F)F)cc1
(e) COc1ccc2[nH]cc(CCNC(=O)c3ccc(-c4ccccc4)cc3)c2c1
Input line: List by increasing pIC50. Show the ranking through the labels, in the order asked for.
Output line: a, b, d, e, c

###

- TARGET_SYSTEM: Transient receptor potential cation channel subfamily V member 1 (Homo sapiens)
- PROTOCOL: Antagonist activity at human TRPV1 assessed as inhibition of capsaicin-induced calcium influx in HEK293 cells
TEST_READOUT: IC50 (µM)

CC(C)(C)c1ccc(NC(=O)c2ccc(C(F)(F)F)cc2)cc1 :: 0.22

(1) COc1ccc2[nH]cc(CCNC(=O)c3ccc(OCC(F)(F)F)nc3)c2c1
(2) CCC(c1ccccn1)c1c(Cl)c(Cl)cc2[nH]c(=O)c(=O)[nH]c12 (centres undefined)
Input line: Hey, between 1 and 2 which has a smaller measured IC50? Identify your selection by its label.
Output line: 2
(2: 1.4 µM, 1: 3.4 µM)

(P) O=C(NCC1CCCc2[nH]c3ccc(O)cc3c21)c1ccc(OC(F)(F)F)cc1 (centres undefined)
(Q) COc1ccc2[nH]cc(CCNC(=O)c3ccc(CC(C)C)cc3)c2c1
(R) COc1ccc2[nH]cc(CCNC(=O)c3ccc(OC(F)(F)C(F)F)cc3)c2c1
(S) CC(C)(C)C1CCC(c2nc3ccc(OC(F)(F)F)cc3[nH]2)CC1 (centres undefined)
Input line: Rank order required: IC50, descending. Show the ranking through the labels, in the order asked for.
Output line: S, Q, R, P

(I) COc1ccc2[nH]cc(CCNC(=O)c3ccc(-c4ccccc4)nc3)c2c1
(II) O=C(Nc1ccc(I)cc1)c1ccc(OC(F)(F)F)cc1
Input line: Hey, between I and II which has a smaller measured IC50? Identify your selection by its label.
Output line: II
(II: 0.28 µM, I: 3.94 µM)

(I) O=C(NCCN1CCCc2ccccc21)c1ccc(OC(F)(F)F)cc1
(II) COc1ccc2cccc(CC(C)NC(=O)c3ccc(OC(F)(F)F)cc3)c2c1 (centres undefined)
Input line: Hey, between I and II which has a smaller measured IC50? Identify your selection by its label.
Output line: II
(II: 3.1 µM, I: 4.6 µM)
